Origin of the recorded values: PubChem BioAssay (NCI)

system: SK-MEL-28 melanoma
measuredProperty: GI50

Parameters: items (list). Returns: GI50 for each item.
1. CCCCc1cc(O)ccc1O
2. CCOC(=O)/C(C1=CC(=O)C(=O)c2ccccc21)=C(/C)NCc1ccccc1
3. CCN(CC)C(=S)SSC1CCCCC1
4. O=c1c(OC/C(=N/O)c2ccccc2)c(-c2ccccc2)oc2ccccc12
5. Cc1ccc(N2C(=O)C(Cl)=C(Nc3cccc(O)c3)C2=O)cc1Cl
6. CCN(CC)CC(C)Nc1ccc(C)c2sc3ccccc3c(=O)c12 (stereo not drawn)
7. OCC1OC(N2C=C(c3nc4ccccc4s3)C3C=CC=CC32)C(O)C1O (stereo not drawn)

78.7 µM
3.02 µM
19.9 µM
16.6 µM
22.4 µM
1.73 µM
10.8 µM

Batch request: GI50 per item, same order as input.
1. O=C(/C=C/c1ccc([N+](=O)[O-])o1)NNC(=O)c1cc2ccccc2cc1O
2. CC(C)(C)C([O-])=C1C(=O)c2ccccc2C1=O.CC(C)(C)C([O-])=C1C(=O)c2ccccc2C1=O.CC[O-].CC[O-].[Ti+4]
3. CC1=CC[C@@H]2C(C)(C)[C@@H](O)CC[C@@]2(C)[C@@H]1COc1ccc2ccc(=O)oc2c1
4. CCOC(=O)/C=C/c1ccc(C(=O)OCC)[nH]1
5. C=C1C(=O)O[C@H]2[C@H]1CC/C(COC(=O)c1ccc(C(=O)O)s1)=C\CC[C@@]1(C)O[C@@H]21
6. O=Nc1c2cccnc2n2nnc3ccc(Cl)cc3c12

1. 0.596 µM
2. > 100 µM
3. 11.8 µM
4. 33.7 µM
5. 2.1 µM
6. 2.39 µM
